- System: DU4475
- Protocol notes: Cytotoxicity in vitro (CellTiter-Glo viability), DU4475
- Type: cell-based, human
- Condition description: DU4475 (TNBC), 72 hours
Non-standard residues stand in square brackets, D forms with d. Residues, ends and D or L forms follow the SMILES beside them. *: point of attachment. Dolaproine = CO[C@@H]([C@@H]1CCCN1)[C@@H](C)C(=O)O; Dil = CC[C@H](C)[C@H](NC)[C@@H](CC(=O)O)OC; X1 = C[C@@H](N*)[C@@H](O)c1ccccc1; NMeV = CN[C@H](C(=O)O)C(C)C
Measurement label: EC50 (nM)

>>> quantitative_readout("CC[C@H](C)[C@@H]([C@@H](CC(=O)N1CCC[C@H]1[C@H](OC)[C@@H](C)C(=O)N[C@H](C)[C@@H](O)c1ccccc1)OC)N(C)C(=O)[C@@H](NC(=O)[C@@H](NC)C(C)C)C(C)C [MMAE, monomethyl auristatin E, reference compound] (H-[NMeV]V[Dil][Dolaproine]-X1)")
2.5
